system: PPARg:RXRa IVT, anti-PPARg (NR concentration 270 nM, RXRa partner concentration 90 nM); test: PBM binding z-score (relative to random genomic background probes); higher = stronger binding; sequences stand for … in GC…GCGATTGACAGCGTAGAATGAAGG
Respond with y for PBM binding z-score values of 2 and above, n for values below.

Please review the entries below; each comes with its answer.
| seq.text | label.class |
| --- | --- |
| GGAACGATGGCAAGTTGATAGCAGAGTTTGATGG | n |
| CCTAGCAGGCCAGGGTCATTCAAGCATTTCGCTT | n |
| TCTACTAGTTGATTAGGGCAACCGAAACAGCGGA | n |
| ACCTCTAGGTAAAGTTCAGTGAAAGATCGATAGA | n |
| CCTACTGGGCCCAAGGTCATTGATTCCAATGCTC | y |
| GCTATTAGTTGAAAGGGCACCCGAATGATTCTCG | n |
| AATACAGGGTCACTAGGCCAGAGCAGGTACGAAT | y |
| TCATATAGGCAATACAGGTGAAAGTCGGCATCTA | n |
| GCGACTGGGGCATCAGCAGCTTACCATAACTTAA | y |
| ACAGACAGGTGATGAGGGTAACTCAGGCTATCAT | n |

Exam item: Please check the record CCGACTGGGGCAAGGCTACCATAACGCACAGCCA and state if its PBM binding z-score is at or above 2.
Marked response: y

Exam item: Assess whether reported PBM binding z-score for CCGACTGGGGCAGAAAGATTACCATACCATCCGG sits at 2 or higher.
Marked response: n

###

system: LXRa:RXRa (NR concentration 270 nM, RXRa partner concentration 90 nM); assay: PBM binding z-score (relative to random genomic background probes); higher = stronger binding; sequences stand for … in GC…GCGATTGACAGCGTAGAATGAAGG
measurement.name: PBM binding z-score
Answer field: number only, no words.

Known PBM binding z-score results, listed for orientation:
| seq.text | PBM binding z-score |
| --- | --- |
| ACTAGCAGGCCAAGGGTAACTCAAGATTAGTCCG | 0.773 |
| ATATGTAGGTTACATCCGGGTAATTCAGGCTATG | 5.83 |
| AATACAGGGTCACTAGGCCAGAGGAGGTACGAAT | 4.93 |
| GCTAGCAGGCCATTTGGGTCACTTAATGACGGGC | -0.185 |

Exam item: Form field: reported PBM binding z-score of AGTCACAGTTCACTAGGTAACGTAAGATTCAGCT
Marked response: 1.66

Exam item: Given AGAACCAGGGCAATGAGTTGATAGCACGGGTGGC , state its recorded PBM binding z-score.
Marked response: -0.319

Exam item: Entry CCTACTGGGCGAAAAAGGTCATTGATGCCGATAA : reported PBM binding z-score = ?
Marked response: 3.79

###

system: RARg:RXRa (NR concentration 270 nM, RXRa partner concentration 90 nM); experiment: PBM binding z-score (relative to random genomic background probes); higher = stronger binding; sequences stand for … in GC…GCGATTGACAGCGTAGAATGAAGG
Please note: Criterion met applies when PBM binding z-score is 4 or greater, and Criterion not met applies otherwise.

| seq.text | label.class |
| --- | --- |
| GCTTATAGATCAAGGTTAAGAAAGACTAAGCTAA | Criterion not met |

Exam item: Kindly determine if PBM binding z-score recorded for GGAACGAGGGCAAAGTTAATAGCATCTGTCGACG is above or exactly 4.
Marked response: Criterion not met

Exam item: Has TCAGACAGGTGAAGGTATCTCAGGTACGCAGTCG a recorded PBM binding z-score greater than or equal to 4?
Marked response: Criterion not met

Exam item: Evaluate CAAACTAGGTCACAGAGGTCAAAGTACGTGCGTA : PBM binding z-score at minimum 4?
Marked response: Criterion met

###

tested on: PPARg:RXRa (NR concentration 180 nM, RXRa partner concentration 90 nM); assay: PBM binding z-score (relative to random genomic background probes); higher = stronger binding; sequences stand for … in GC…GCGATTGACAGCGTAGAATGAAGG
// classify(record): look up PBM binding z-score in ranges Low (below 1), Medium (1 to below 3), High (3 or more)

Example cases with answers are listed next.
| seq.text | label.class |
| --- | --- |
| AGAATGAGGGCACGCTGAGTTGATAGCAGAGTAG | Medium |
| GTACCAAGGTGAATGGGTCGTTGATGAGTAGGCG | Medium |
| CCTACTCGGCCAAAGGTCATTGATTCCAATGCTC | High |
| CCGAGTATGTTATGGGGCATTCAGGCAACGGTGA | Low |

Exam item: Category lookup for the sequence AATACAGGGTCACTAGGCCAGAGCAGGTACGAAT
Marked response: High

Exam item: Please classify: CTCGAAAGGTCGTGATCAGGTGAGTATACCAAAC
Marked response: High

Exam item: For this sequence, which bin applies? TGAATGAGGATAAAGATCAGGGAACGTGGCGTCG
Marked response: Medium

Exam item: Hi there! Could you help me figure out the category for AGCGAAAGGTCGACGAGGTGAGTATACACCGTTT please?
Marked response: High

Exam item: Which class holds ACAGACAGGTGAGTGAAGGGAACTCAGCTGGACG ?
Marked response: Low

Exam item: Category of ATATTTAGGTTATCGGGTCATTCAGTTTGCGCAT :
Marked response: High

Exam item: Lab log: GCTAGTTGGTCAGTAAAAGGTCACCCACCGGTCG — assign PBM binding z-score category
Marked response: Medium

Exam item: Category lookup for the sequence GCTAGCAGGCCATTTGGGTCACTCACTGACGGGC
Marked response: Low

Exam item: Note: place this sequence into its band. Item: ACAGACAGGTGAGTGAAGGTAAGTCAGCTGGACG
Marked response: Low

Exam item: Class label required: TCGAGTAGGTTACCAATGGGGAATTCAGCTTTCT
Marked response: Low

Exam item: Which category fits this record: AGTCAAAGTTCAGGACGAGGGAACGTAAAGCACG
Marked response: High

Exam item: Please classify: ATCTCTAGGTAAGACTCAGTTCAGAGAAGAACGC
Marked response: Low

Exam item: State the class of the sequence shown: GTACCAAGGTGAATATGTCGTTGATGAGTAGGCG
Marked response: Low

Exam item: // bin(item) where item = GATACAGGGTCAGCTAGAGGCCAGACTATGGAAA
Marked response: High

Exam item: Bin this entry: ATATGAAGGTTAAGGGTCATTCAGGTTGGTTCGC
Marked response: High

Exam item: Bin? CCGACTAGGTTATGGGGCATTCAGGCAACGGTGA
Marked response: High

###

tested on: PPARg:RXRa 90nM:30nM, anti-RXR (NR concentration 90 nM, RXRa partner concentration 30 nM); assay: PBM binding z-score (relative to random genomic background probes); higher = stronger binding; sequences stand for … in GC…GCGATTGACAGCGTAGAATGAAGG
Rule: PBM binding z-score under 0.5 gives Not satisfied, otherwise Satisfied.

Reference set, count: 6
| seq.text | label.class |
| --- | --- |
| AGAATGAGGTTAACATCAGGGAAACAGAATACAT | Satisfied |
| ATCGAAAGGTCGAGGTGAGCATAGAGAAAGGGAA | Satisfied |
| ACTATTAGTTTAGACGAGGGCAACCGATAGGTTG | Not satisfied |
| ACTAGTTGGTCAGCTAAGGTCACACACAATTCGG | Satisfied |
| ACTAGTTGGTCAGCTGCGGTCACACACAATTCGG | Not satisfied |
| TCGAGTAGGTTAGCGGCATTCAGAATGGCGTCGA | Not satisfied |

Exam item: Can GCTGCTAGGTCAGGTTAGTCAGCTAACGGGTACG be said to have PBM binding z-score at or above 0.5?
Marked response: Satisfied

Exam item: Check the entry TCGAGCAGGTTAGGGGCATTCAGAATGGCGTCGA : does PBM binding z-score equal or exceed 0.5?
Marked response: Not satisfied

Exam item: Hello, I need to know if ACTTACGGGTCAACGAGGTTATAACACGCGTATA has measured PBM binding z-score not below 0.5. Thanks!
Marked response: Satisfied

###

test system: LXRb:RXRa (NR concentration 270 nM, RXRa partner concentration 90 nM); test: PBM binding z-score (relative to random genomic background probes); higher = stronger binding; sequences stand for … in GC…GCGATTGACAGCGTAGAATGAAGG
measurement.name: PBM binding z-score
Give the figure by itself; no unit, no explanation.

Study these solved cases before continuing.
| seq.text | reading |
| --- | --- |
| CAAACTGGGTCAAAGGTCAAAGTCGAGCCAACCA | 6.89 |
| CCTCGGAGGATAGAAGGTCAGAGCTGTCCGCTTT | 1.21 |
| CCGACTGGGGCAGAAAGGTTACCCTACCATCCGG | 0.448 |
| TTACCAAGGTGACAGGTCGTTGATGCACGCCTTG | 0.582 |
| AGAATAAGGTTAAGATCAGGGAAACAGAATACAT | 2.09 |

Exam item: Item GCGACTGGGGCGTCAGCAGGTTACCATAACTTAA has what recorded PBM binding z-score?
Marked response: 0.262

Exam item: For the sequence shown here, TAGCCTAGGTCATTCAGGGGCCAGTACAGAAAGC , give the reported PBM binding z-score.
Marked response: 3.16

Exam item: Endpoint output: PBM binding z-score of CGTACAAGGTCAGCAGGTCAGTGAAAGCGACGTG . Value?
Marked response: 3.29

Exam item: Which PBM binding z-score value belongs to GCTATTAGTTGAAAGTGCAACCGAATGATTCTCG ?
Marked response: 0.177

Exam item: Endpoint output: PBM binding z-score of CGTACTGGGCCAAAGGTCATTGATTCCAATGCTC . Value?
Marked response: 5.04

Exam item: Would you mind telling me what PBM binding z-score value was observed for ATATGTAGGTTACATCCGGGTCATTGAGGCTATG ?
Marked response: 2.74

Exam item: Bench note: what PBM binding z-score did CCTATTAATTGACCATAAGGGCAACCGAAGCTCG show?
Marked response: 0.747

Exam item: Form field: reported PBM binding z-score of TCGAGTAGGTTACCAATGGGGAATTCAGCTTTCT
Marked response: 0.355

Exam item: Quick one: PBM binding z-score for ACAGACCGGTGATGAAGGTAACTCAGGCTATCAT ?
Marked response: -0.283

Exam item: Param item = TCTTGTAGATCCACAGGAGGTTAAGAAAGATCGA ; retrieve measured PBM binding z-score.
Marked response: 1.08

Exam item: Query (sequence): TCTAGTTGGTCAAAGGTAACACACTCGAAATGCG ; field requested: PBM binding z-score
Marked response: 1.5
